# Experimental target: T1, CD28 endogenously expressed on Jurkat/IL2 reporter cells (human, UniProt P10747 19-220)
# T1 construct: whole, on cells; Target on Jurkat cells; also called Jurkats (CD28)
# Method description: flow cytometry, Jurkat cells (CD28), Fc fusion at 33.3 nM
Property measured: MFI at 33.3 nM (MFI)
Record the value in MFI, omitting the unit from your answer.

The following binders have reported results that may help.
Binder: CD80 M47V/V68M/K89N IgV-Fc (Fc fusion, not shown: small tags and cut ends; a dimerising Fc or GST) VIHVTKEVKEVATLSCGHNVSVEELAQTRIYWQKEKKMVLTMMSGDVNIWPEYKNRTIFDITNNLSIMILALRPSDEGTYECVVLKYENDAFKREHLAEVTLSVKAD
MFI at 33.3 nM, MFI: 1320
//
Binder: CD80 E35D/D46V/M47V/N48K/V68M IgV-Fc (Fc fusion, not shown: small tags and cut ends; a dimerising Fc or GST) VIHVTKEVKEVATLSCGHNVSVEELAQTRIYWQKDKKMVLTMMSGVVKIWPEYKNRTIFDITNNLSIMILALRPSDEGTYECVVLKYEKDAFKREHLAEVTLSVKAD
MFI at 33.3 nM, MFI: 1080
//
Binder: CD80 E35D/M47V/N48K/V68M/L85Q IgV-Fc (Fc fusion, not shown: small tags and cut ends; a dimerising Fc or GST) VIHVTKEVKEVATLSCGHNVSVEELAQTRIYWQKDKKMVLTMMSGDVKIWPEYKNRTIFDITNNLSIMILALRPSDEGTYECVVQKYEKDAFKREHLAEVTLSVKAD
MFI at 33.3 nM, MFI: 118
//
Binder: CD80 E35D/N48K/K89N IgV-Fc (Fc fusion, not shown: small tags and cut ends; a dimerising Fc or GST) VIHVTKEVKEVATLSCGHNVSVEELAQTRIYWQKDKKMVLTMMSGDMKIWPEYKNRTIFDITNNLSIVILALRPSDEGTYECVVLKYENDAFKREHLAEVTLSVKAD
MFI at 33.3 nM, MFI: 411

Challenge: Need MFI at 33.3 nM, item CD80 E35D/M47V/K89N IgV-Fc (Fc fusion, not shown: small tags and cut ends; a dimerising Fc or GST) VIHVTKEVKEVATLSCGHNVSVEELAQTRIYWQKDKKMVLTMMSGDVNIWPEYKNRTIFDITNNLSIVILALRPSDEGTYECVVLKYENDAFKREHLAEVTLSVKAD
Response given: 507

Challenge: Need MFI at 33.3 nM, item CD80 E35D/M47V/N48K/V68M/K89N IgV-Fc (Fc fusion, not shown: small tags and cut ends; a dimerising Fc or GST) VIHVTKEVKEVATLSCGHNVSVEELAQTRIYWQKDKKMVLTMMSGDVKIWPEYKNRTIFDITNNLSIMILALRPSDEGTYECVVLKYENDAFKREHLAEVTLSVKAD
Response given: 1350

Challenge: Need MFI at 33.3 nM, item WT CD80 ECD-Fc (Abcam) (Fc fusion, UniProt P33681 35-242, looked up, extracellular domain; not shown: Fc of the bought product, not described) VIHVTKEVKEVATLSCGHNVSVEELAQTRIYWQKEKKMVLTMMSGDMNIWPEYKNRTIFDITNNLSIVILALRPSDEGTYECVVLKYEKDAFKREHLAEVTLSVKADFPTPSISDFEIPTSNIRRIICSTSGGFPEPHLSWLENGEELNAINTTVSQDPETELYAVSSKLDFNMTTNHSFMCLIKYGHLRVNQTFNWNTTKQEHFPDN
Response given: 709

Challenge: Need MFI at 33.3 nM, item CD80 M47V/N48K/K89N IgV-Fc (Fc fusion, not shown: small tags and cut ends; a dimerising Fc or GST) VIHVTKEVKEVATLSCGHNVSVEELAQTRIYWQKEKKMVLTMMSGDVKIWPEYKNRTIFDITNNLSIVILALRPSDEGTYECVVLKYENDAFKREHLAEVTLSVKAD
Response given: 366

Origin of values: patent US20210130436A1
